Residues, ends and D or L forms follow the SMILES beside them.
pKi tested on human DOPr (Homo sapiens, UniProt P41143): recorded values
Sequence (P41143 whole entry): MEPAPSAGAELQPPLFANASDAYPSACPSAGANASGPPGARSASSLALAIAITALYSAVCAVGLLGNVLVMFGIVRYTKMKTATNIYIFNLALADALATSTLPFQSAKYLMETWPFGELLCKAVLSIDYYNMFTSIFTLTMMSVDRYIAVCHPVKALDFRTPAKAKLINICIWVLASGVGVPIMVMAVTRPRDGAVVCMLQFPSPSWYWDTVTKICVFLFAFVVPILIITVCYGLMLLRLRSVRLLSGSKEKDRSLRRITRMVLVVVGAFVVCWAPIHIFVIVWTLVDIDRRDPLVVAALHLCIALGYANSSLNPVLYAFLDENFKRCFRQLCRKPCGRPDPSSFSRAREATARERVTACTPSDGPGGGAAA
Notebook: values listed as pKi are -log10 of the concentration (mol/L).

MOLECULE	EXPERIMENTAL_RESULT
Cc1cc(O)cc(C)c1C[C@H](N)C(=O)N[C@H](CCCNC(=N)N)C(=O)N[C@H]1Cc2ccccc2CN(CCC(=O)N[C@@H](CCCN2CCC(Cc3ccccc3)CC2)C(=O)N[C@@H](Cc2ccccc2)C(N)=O)C1=O [KGFF09, H-Dmt-D-Arg-Aba-β-Ala-Bpa-Phe-NH2]	6.73
Cc1cc(O)cc(C)c1C[C@H](N)C(=O)N[C@H](CCCNC(=N)N)C(=O)N[C@H]1Cc2ccccc2CN(CCC(N)=O)C1=O [KGOP01, reference compound]	8.29

Attention now shifts to the item below.
pKi measured on Cc1cc(O)cc(C)c1C[C@H](N)C(=O)N[C@H](CCCNC(=N)N)C(=O)N[C@H]1Cc2ccccc2CN(CCC(=O)N[C@@H](CCCNC(=N)N)C(=O)N[C@@H](Cc2ccccc2)C(N)=O)C1=O [KGFF03, H-Dmt-D-Arg-Aba-β-Ala-Arg-Phe-NH2] (HELM PEPTIDE1{[Cc1cc(O)cc(C)c1C[C@H](N)C(=O)[*:2]].[dR].[O=C1[C@@H](N[*:1])Cc2ccccc2CN1CCC(=O)[*:2]].R.F.[am]}$$$$V2.0) = 8.04
